assay.target: 5-HT1A serotonin receptor (Rattus norvegicus, UniProt P19327)
Sequence (P19327 whole entry): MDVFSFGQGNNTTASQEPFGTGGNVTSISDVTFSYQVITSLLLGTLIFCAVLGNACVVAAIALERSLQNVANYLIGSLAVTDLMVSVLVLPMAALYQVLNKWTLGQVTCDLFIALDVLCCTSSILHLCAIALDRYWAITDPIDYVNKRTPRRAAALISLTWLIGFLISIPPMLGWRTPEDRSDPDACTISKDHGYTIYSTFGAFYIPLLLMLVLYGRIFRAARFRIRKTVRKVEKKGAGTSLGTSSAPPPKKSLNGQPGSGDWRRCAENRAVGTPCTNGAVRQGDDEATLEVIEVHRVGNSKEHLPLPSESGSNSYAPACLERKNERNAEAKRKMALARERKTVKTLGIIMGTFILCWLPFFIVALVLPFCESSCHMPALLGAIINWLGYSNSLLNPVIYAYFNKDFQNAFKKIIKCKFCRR
pIC50: −log10 of the molar value.
pIC50 of 9 or higher: y. Under 9: n.

Examples from the recorded data:
compound	group
Fc1ccc2[nH]cc(CCCNCC3COc4ccccc4O3)c2c1 (stereo not shown) [Example 13]	y
Oc1ccc2[nH]cc(CCCNCC3COc4ccccc4O3)c2c1 (stereo not shown) [Example 5]	y
COc1ccc2c(c1)OC(CNCCCCc1c[nH]c3ccc(F)cc13)CO2 (stereo not shown) [Example 19]	n
COc1ccc2c(c1)OC(CNCCCc1c[nH]c3ccc(O)cc13)CO2 (stereo not shown) [Example 6]	n

Could you now look at the following compound, please?
# input For this compound, is measured pIC50 9 or higher? COc1ccc2[nH]cc(CCCNCC3COc4ccccc4O3)c2c1 (stereo not shown) [Example 12]
# output y

---

assay.target: dopamine D2 receptor (Rattus norvegicus, UniProt P61169)
Construct: homogenized rat striatal brain tissue
Sequence (P61169 whole entry): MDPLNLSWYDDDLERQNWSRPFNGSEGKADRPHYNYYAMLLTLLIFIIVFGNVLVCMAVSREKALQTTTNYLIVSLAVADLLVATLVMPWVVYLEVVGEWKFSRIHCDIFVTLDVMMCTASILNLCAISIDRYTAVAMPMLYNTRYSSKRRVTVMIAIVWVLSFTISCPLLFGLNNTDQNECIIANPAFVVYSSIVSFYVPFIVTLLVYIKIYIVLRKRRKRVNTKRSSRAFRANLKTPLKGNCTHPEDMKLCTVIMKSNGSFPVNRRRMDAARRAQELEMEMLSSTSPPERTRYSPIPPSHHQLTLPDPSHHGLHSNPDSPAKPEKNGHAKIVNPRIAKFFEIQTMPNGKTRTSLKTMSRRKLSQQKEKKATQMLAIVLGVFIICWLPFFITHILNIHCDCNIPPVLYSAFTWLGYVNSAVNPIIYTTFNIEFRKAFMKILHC
assay.summary: dopamine D2 receptor affinity, 3H-quinpirole, homogenized rat striatal brain tissue (modified Seemen and Schaus)
observable: IC50 (nM)
All answers are understood in nM, so give the number only.

Here's what some known entries look like.
compound	unit.of.measurement	IC50
Oc1ccc2c(c1)O[C@@H](CNCCCc1c[nH]c3ccccc13)CO2	nM	0.13
Cn1cc(CCCCNCC2COc3ccccc3O2)c2cc(F)ccc21 (stereo not drawn)	nM	49.8
CS(=O)(=O)Nc1ccc2c(c1)OC(CNCCCCc1c[nH]c3ccccc13)CO2 (stereo not drawn)	nM	2.37
c1ccc2c(c1)OCC(CNCCCc1c[nH]c3ccccc13)O2 (stereo not drawn)	nM	3.5
COc1ccc2c(c1)OC(CNCCCCc1c[nH]c3ccc(OC)cc13)CO2 (stereo not drawn)	nM	64
c1ccc2c(CCCCNC[C@H]3COc4cc5c(cc4O3)OCO5)c[nH]c2c1	nM	116
CS(=O)(=O)Nc1ccc2c(c1)O[C@@H](CNCCCc1c[nH]c3ccccc13)CO2	nM	0.76
Oc1ccc2c(c1)OC(CNCCCCc1c[nH]c3ccccc13)CO2 (stereo not drawn)	nM	1.3

Now turn to the next compound.
# input Entry under review: c1ccc2c(c1)OCC(CNCCCCc1c[nH]c3ccccc13)O2 (stereo not drawn) . Reported IC50?
# output 13.6

---

molecules and their reported IC50
assay.target: dopamine D2 receptor (Rattus norvegicus)
Construct: homogenized rat striatal brain tissue
assay.summary: dopamine D2 receptor affinity, 3H-quinpirole, homogenized rat striatal brain tissue (modified Seemen and Schaus)
All answers are understood in nM, so give the number only.

molecule	IC50 / nM
Fc1ccc2[nH]cc(CCCNCC3COc4ccccc4O3)c2c1 (stereo not drawn) [Example 13]	8.13

# input Entry under review: COc1ccc2c(c1)OC(CNCCCc1c[nH]c3ccc(O)cc13)CO2 (stereo not drawn) [Example 6] . Reported IC50?
# output 45

# input Entry under review: Oc1ccc2c(c1)OC(CNCCCc1c[nH]c3ccc(O)cc13)CO2 (stereo not drawn) [Example 8] . Reported IC50?
# output 0.61

# input Entry under review: Oc1ccc2[nH]cc(CCCNCC3COc4ccccc4O3)c2c1 (stereo not drawn) [Example 5] . Reported IC50?
# output 6.5

# input Entry under review: COc1ccc2[nH]cc(CCCCNCC3COc4ccccc4O3)c2c1 (stereo not drawn) [Example 23] . Reported IC50?
# output 6.63

---

Listed here: compounds with reported log10 IC50 for UniProt:P19327.
Answers are given as log10 of IC50 in nM.

Here's what some known entries look like.
compound	recorded.number
Oc1ccc2c(c1)O[C@@H](CNCCCc1c[nH]c3ccccc13)CO2	0.77
Cn1cc(CCCCNCC2COc3ccccc3O2)c2cc(F)ccc21 (centres unmarked)	1.20
CS(=O)(=O)Nc1ccc2c(c1)OC(CNCCCCc1c[nH]c3ccccc13)CO2 (centres unmarked)	0.59
COc1ccc2c(c1)O[C@@H](CNCCCCc1c[nH]c3ccccc13)CO2	0.76

Now turn to the next compound.
# input Provide the documented log10 IC50 with UniProt:P19327 as the system for COc1ccc2[nH]cc(CCCCNCC3COc4ccc(NS(C)(=O)=O)cc4O3)c2c1 (centres unmarked)
# output -0.09
